# assay: Counterscreen qHTS for Inhibitors of Tau Fibril Formation, Fluorescence Polarization; note: nearly all actives have a fitted effect of over 55% in size
# run conditions: tau K18 P301L (four-repeat tau fragment) Alexa594 fluorescence, heparin fibrillization; series mostly up to 57.7 µM
The whole screen tested about 280,000 compounds, of which about 2,600 (0.93%) were called active. About 8% were inconclusive and are not listed. Calls come from the whole dose curve; as a rule, active = well fitted curve in the direction sought with a large enough effect; inconclusive = small, poorly fitted or top-dose-only effect; inactive = flat fitted curve, though single readings scatter. What follows is part of a selection rich in actives, with near analogues and random picks from the rest.
One label from this list, please: 1 for active, 0 for inactive

# input Answer briefly: the call reported for COc1cc(/C=N\Nc2nc(-c3cccs3)c(NC(C)=O)s2)ccc1O in this assay.
# output 1

# input Another compound to look at: Cc1ccc(C)c(N2CCN(C(=O)Cn3ncc4c(=O)oc5ccc(C)cc5c43)CC2)c1
# output 0

# input Another compound to look at: COc1ccc(Cl)cc1NC(=O)CCN1CCOCC1
# output 0

# input Another compound to look at: COc1ccc(NC(=O)c2ccc3nc(C(C)C)oc3c2)cc1OC
# output 0

# input Another compound to look at: COc1ccc(Cl)cc1NC(=O)c1oc(C)nc1C
# output 0

# input Another compound to look at: Cn1c(C(=O)N2CCC(C(=O)N3CCN(c4ccccc4)CC3)CC2)cc2sccc21
# output 0

# input Another compound to look at: CCn1cc2nc(SCc3cccc(F)c3)n(CCc3ccccc3)c(=O)c2n1
# output 0

# input Another compound to look at: CCc1ccc(CN(Cc2ccco2)C(=O)COc2ccc(Cl)c(C)c2)cc1
# output 0

# input Another compound to look at: CCc1ccc2nc3sc(C(=O)Nc4nnc(CC)s4)c(N)c3cc2c1
# output 0

# input Another compound to look at: Cc1cccc(Cn2c(CN3CCC(C(=O)NCc4ccccc4Cl)CC3)cc3ccccc32)c1
# output 0

# input Another compound to look at: Cc1ccc(S(=O)(=O)Nc2nc3ccccc3s2)cc1[N+](=O)[O-]
# output 0
